Target: rSmTAChE (Schistosoma mansoni, UniProt A0A3Q0KMM5)
Sequence (A0A3Q0KMM5 27-661 limits assumed): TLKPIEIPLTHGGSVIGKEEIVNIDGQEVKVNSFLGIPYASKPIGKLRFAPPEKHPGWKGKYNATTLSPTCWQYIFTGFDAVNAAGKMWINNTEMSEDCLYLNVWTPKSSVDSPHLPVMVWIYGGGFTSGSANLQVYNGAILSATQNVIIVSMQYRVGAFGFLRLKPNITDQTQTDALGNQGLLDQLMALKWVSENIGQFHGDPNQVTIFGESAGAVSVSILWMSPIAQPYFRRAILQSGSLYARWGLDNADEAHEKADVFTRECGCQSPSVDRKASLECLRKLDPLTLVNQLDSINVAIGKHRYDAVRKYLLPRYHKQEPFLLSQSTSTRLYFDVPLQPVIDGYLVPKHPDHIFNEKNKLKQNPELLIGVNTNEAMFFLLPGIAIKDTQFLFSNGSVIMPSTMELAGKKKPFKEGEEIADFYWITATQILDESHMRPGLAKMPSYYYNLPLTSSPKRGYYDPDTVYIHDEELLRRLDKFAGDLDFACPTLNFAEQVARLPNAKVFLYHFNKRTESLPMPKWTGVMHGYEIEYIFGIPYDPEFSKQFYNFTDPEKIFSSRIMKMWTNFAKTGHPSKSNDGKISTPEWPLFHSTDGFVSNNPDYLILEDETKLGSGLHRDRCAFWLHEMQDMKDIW
Assay type: biochemical
Readout: Data Mode (curve class), rSmTAChE

compound="NC(=O)N/N=C/c1ccc(Oc2ccc(F)cc2)cc1 [BRD-K70912147-001-01-8]" target_or_test_system="rSmTAChE (Schistosoma mansoni, UniProt A0A3Q0KMM5)" reported_measurement=inactive
compound="COc1cc(NC(C)CCCN)c2ncccc2c1 (stereo not drawn) [Primaquine phosphate, reference compound]" target_or_test_system="rSmTAChE (Schistosoma mansoni, UniProt A0A3Q0KMM5)" reported_measurement=decreasing
compound="CCCCCCCC/C=C\\CCCCCCCC(=O)NCCc1ccc(O)c(O)c1 [OLDA, reference compound]" target_or_test_system="rSmTAChE (Schistosoma mansoni, UniProt A0A3Q0KMM5)" reported_measurement=decreasing
compound="COC(=O)/C=C/c1cccc(N(Cc2ccc(-c3ccc(N(C)C)cc3)cc2)C(=O)C2CCCCC2)c1 [BRD-K08864679-001-02-2]" target_or_test_system="rSmTAChE (Schistosoma mansoni, UniProt A0A3Q0KMM5)" reported_measurement=inactive
compound="N.N.[Cl][Pt][Cl] [Cisplatin, reference compound]" target_or_test_system="rSmTAChE (Schistosoma mansoni, UniProt A0A3Q0KMM5)" reported_measurement=decreasing
compound="CN(C)C(=O)Oc1ccc[n+](C)c1 [Pyridostigmine bromide, reference compound]" target_or_test_system="rSmTAChE (Schistosoma mansoni, UniProt A0A3Q0KMM5)" reported_measurement=decreasing
compound="Clc1ccc(C(Cn2ccnc2)OCc2ccc(Sc3ccccc3)cc2)c(Cl)c1 (stereo not drawn) [BRD-A33697453-008-02-4]" target_or_test_system="rSmTAChE (Schistosoma mansoni, UniProt A0A3Q0KMM5)" reported_measurement=inactive
compound="CN(CCCCCCCCCCN(C)C(=O)Oc1cccc([N+](C)(C)C)c1)C(=O)Oc1cccc([N+](C)(C)C)c1 [Demecarium bromide, reference compound]" target_or_test_system="rSmTAChE (Schistosoma mansoni, UniProt A0A3Q0KMM5)" reported_measurement=decreasing

// next entry
What Data Mode (curve class), rSmTAChE value was documented for this compound, O=C(O)c1ccccc1Nc1ccc(CCc2ccc(Cl)c(Cl)c2)cc1 [BRD-K34657753-001-01-9] ? decreasing

###

Inhibition (%) Replicate B overview
Target: rSmTAChE (Schistosoma mansoni)
Test: biochemical
# unit: % | format: bare number

compound="COCCOc1ccc2c(c1)ncn2-c1ccc2cccc(N3CCC(N)CC3)c2n1 [BRD-K43621685-001-03-3]" reported_measurement=78.32
compound="COC(=O)N[C@H](C(=O)N1CC2(CC2)C[C@H]1c1ncc(-c2ccc3c(c2)C(F)(F)c2cc(-c4ccc5nc([C@@H]6[C@H]7CC[C@H](C7)N6C(=O)[C@@H](NC(=O)OC)C(C)C)[nH]c5c4)ccc2-3)[nH]1)C(C)C [BRD-K05446112-001-01-8]" reported_measurement=65.39
compound="CCC(CC)C(c1ccc(Nc2nc3ccccc3s2)cc1)n1cncn1 (centres unmarked) [BRD-A95755460-001-01-3]" reported_measurement=67.03
compound="C[C@]12CC[C@@H]3c4ccc(O)cc4CC[C@H]3[C@@H]1CCC2=O [BRD-K81839095-001-25-1]" reported_measurement=97.78
compound="COC(=O)[C@]12CCC(C)(C)C[C@@H]1[C@@H]1C(=O)C=C3[C@]4(C)C=C(C#N)C(=O)C(C)(C)[C@@H]4CC[C@@]3(C)[C@]1(C)CC2 [BRD-K69694239-001-02-2]" reported_measurement=76.41

Param readout = Inhibition (%) Replicate B; param system = rSmTAChE (Schistosoma mansoni); param query = COc1ccc(C(Cl)=C(c2ccc(OC)cc2)c2ccc(OC)cc2)cc1 [BRD-K27062708-001-23-1] ; response: value 65.61

Consider next the compound CC(=O)[C@@]12OC(C)(c3ccccc3)O[C@@H]1C[C@H]1[C@@H]3CCC4=CC(=O)CC[C@]4(C)[C@H]3CC[C@@]12C (some centres unmarked) [BRD-A41774846-001-01-4] in the same way. 86.68

# iterate: O=c1sn(-c2cccc3ccccc23)c(=O)n1Cc1ccccc1 [BRD-K81330143-001-04-8] 88.27

And the next one, N#C[C@H]1[C@@H](c2ccc(C#CC3CC3)cc2)[C@@H](CO)N1C(=O)Cc1ccccn1 [BRD-K68325500-004-02-0] ? 66.02

Can you check CCCCc1oc2ccc(NS(C)(=O)=O)cc2c1C(=O)c1ccc(OCCCN(CCCC)CCCC)cc1 [BRD-K05524748-003-04-4] next? 77.02

Proceed to N#C[C@H]1[C@H](c2ccc(C#CC3CC3)cc2)[C@H](CO)N1C(=O)Cc1ccccn1 [BRD-K00124439-001-01-2] 62.84

Further, for CCCNC(=O)Nc1ccc(Oc2ncnc3cc(OC)c(OC)cc23)cc1Cl [BRD-K90993449-001-02-7] ? 77.59

CC(C)c1onc(-c2c(Cl)cccc2Cl)c1COc1ccc(/C=C/c2cccc(C(=O)O)c2)c(Cl)c1 [GW-4064, reference compound] ? 65.41

Try this compound too: O=C(Nc1ncc(SCCN2CCCC2)s1)[C@]1(c2ccc(S(=O)(=O)C3CC3)cc2)C[C@H]1C1CCCCC1 [LY2608204, reference compound] 81.29

###

Target: UniProt:A0A3Q0KMM5
Experiment: biochemical
Readout: Inhibition (%) Replicate A
Express the result in % but write the number alone.

// below: answered molecules
molecule="C[C@]12CC[C@@H]3c4ccc(O)cc4C[C@@H](CCCCCCCCC[S+]([O-])CCCC(F)(F)C(F)(F)F)[C@H]3[C@@H]1CC[C@@H]2O (stereo partly shown) [BRD-A85667082-001-10-1]" reported_measurement=87.84
molecule=CCCCCCCCc1ccc(CCC(N)(CO)CO)cc1 reported_measurement=73.25
molecule=N#Cc1ccc(N2NC3=C(CCc4cc(C(=O)O)ccc43)[C@@H]2C2CCCC2)cc1Cl reported_measurement=70.13

Record request: Inhibition (%) Replicate A value, item `CCc1c(C(=O)NCCc2ccc(N3CCCCC3)cc2)[nH]c2ccc(Cl)cc12` 60.33

###

Biological target: rSmTAChE (Schistosoma mansoni)
Type: biochemical
Readout: Data Mode (curve class), rSmTAChE

molecule="C[C@H](Cc1ccc(O)c(O)c1)[C@@H](C)Cc1ccc(O)c(O)c1 [Masoprocol, reference compound]" target_or_test_system="rSmTAChE (Schistosoma mansoni)" readout="Data Mode (curve class), rSmTAChE" reported_measurement=decreasing
molecule="CSc1cc2c(cc1C(F)(F)F)N(C(=O)Nc1cccnc1)CC2 [BRD-K14807180-001-02-5]" target_or_test_system="rSmTAChE (Schistosoma mansoni)" readout="Data Mode (curve class), rSmTAChE" reported_measurement=inactive
molecule="O=C(O)CNC(=O)c1c(O)c2ccccc2n(Cc2ccccc2)c1=O [IOX2, reference compound]" target_or_test_system="rSmTAChE (Schistosoma mansoni)" readout="Data Mode (curve class), rSmTAChE" reported_measurement=decreasing
molecule="O=C(Nc1cccc2c(=O)cc(-c3nnn[nH]3)oc12)c1ccc(OCCCCc2ccccc2)cc1 [Pranlukast, reference compound]" target_or_test_system="rSmTAChE (Schistosoma mansoni)" readout="Data Mode (curve class), rSmTAChE" reported_measurement=decreasing

Need Data Mode (curve class), rSmTAChE, item O=c1sn(-c2cccc3ccccc23)c(=O)n1Cc1ccccc1 [BRD-K81330143-001-04-8] inactive

###

Target: UniProt A0A3Q0KMM5
Test: biochemical
Settings: 20 µM
Readout: rSmTAChE HTS Inhibition (Ave, %)

Worked examples follow.
compound="Brc1cc2c(cc1[C@@H]1Nc3ccccc3[C@@H]3C=CC[C@@H]31)OCO2 [G15, reference compound]" reported_measurement=77.99%
compound="COc1ccc(/C=C/CCCCOc2ccc(C(=O)c3cccc(C(=O)O)c3)cc2CCC(=O)O)cc1 [LY223982, reference compound]" reported_measurement=80.52%
compound="CCCCCCCC/C=C\\CCCCCCCC(=O)NCCc1ccc(O)c(O)c1 [OLDA, reference compound]" reported_measurement=94.46%

Note: attention shifts to another entry.
What does the data say about its rSmTAChE HTS Inhibition (Ave, %)? Entry: O=C(Nc1ncc(SCCN2CCCC2)s1)[C@]1(c2ccc(S(=O)(=O)C3CC3)cc2)C[C@H]1C1CCCCC1 [LY2608204, reference compound] 76.45%

###

# Inhibition (%) Replicate A per record follows
Biological target: rSmTAChE (Schistosoma mansoni, UniProt A0A3Q0KMM5)
Assay: biochemical
Please respond with the number in % and leave the unit unwritten.

Guide cases for Inhibition (%) Replicate A, answers given:
substance_smiles=COc1ccc(C(Cl)=C(c2ccc(OC)cc2)c2ccc(OC)cc2)cc1 target_or_test_system="rSmTAChE (Schistosoma mansoni, UniProt A0A3Q0KMM5)" readout="Inhibition (%) Replicate A" reported_measurement=62.61
substance_smiles=C#C[C@]1(OC(C)=O)CC[C@H]2[C@@H]3CCC4=C[C@@H](OC(C)=O)CC[C@@H]4[C@H]3CC[C@@]21C target_or_test_system="rSmTAChE (Schistosoma mansoni, UniProt A0A3Q0KMM5)" readout="Inhibition (%) Replicate A" reported_measurement=95.51

As a next step, examine the molecule that follows.
// returns reported Inhibition (%) Replicate A for input `COc1ccc(C#Cc2ccc3c(c2)O[C@H](CN(C)S(=O)(=O)c2ccccc2F)[C@H](C)CN([C@H](C)CO)S3(=O)=O)cc1` 61.49
